Recorded values, source PubChem BioAssay (NCI).

System: SK-MEL-2 melanoma
METHOD_SUMMARY: NCI tumour cell line growth inhibition, 48 h
MEASURE: GI50

INSERT INTO measurements (compound, result) VALUES
  ('C=C(C)C(O)CCC1(C)C=Cc2c(c(C)cc3c2[nH]c2ccccc23)O1 (configuration not stated)', '2.11 µM'),
  ('CCOC(=O)c1c(C)nc2c(c1N)CC(=O)N2Cc1ccc(OC)cc1', '36.1 µM'),
  ('COC(=O)c1ccc(-c2nc3cc(Cl)c(Cl)cc3nc2C#N)cc1', '> 100 µM'),
  ('Cc1cccc(/C=C/c2c(C(=O)/C=C/c3ccccc3)c(C)nc3ccccc23)c1', '1.77 µM'),
  ('CCN(Cc1cc(Nc2nc(C)cn3c(-c4cn[nH]c4)cnc23)sn1)C(C)(C)CO', '0.0293 µM'),
  ('N#Cc1ccc(OCc2nc(N)nc(N)c2-c2ccc(Cl)c(Cl)c2)cc1', '3.55 µM');

## Task Please give the measured GI50 for this compound: CC1(C)C2CCC13C(=O)C1OC3(C2)C2C(=O)c3cc4ccccc4cc3C(=O)C12 (configuration not stated)
## Result 42.2 µM
